Value source: paper PMC7463582

test-description: in vivo
condition-details: zebrafish
observed-property: LC50 (µM)
API: value field is a number in µM; no unit string.

Entry under review: Oc1c(Cl)c(Cl)c(O)c(Cl)c1Cl [Tetrachlorohydroquinone (TCHQ), Tetrachlorohydroquinone] . Reported LC50?
15.2

---

# maps each entry to its LC50
test-description: Zebrafish embryo test: lethality and dysmorphogenesis after exposure to a single oxidative stress-related compound
Assay type: in vivo, Zebrafish (Danio rerio)
condition-details: zebrafish, in vivo; exposure window 2–26 hpf; not calculated, reason in footnote; read-out: LC50 (lethal concentration 50)
Procedure: To characterize the effects on embryonic development produced by compounds related to OS, ZF embryos were exposed to OS inducers, modulators of antioxidant status and antioxidants. […] Exposure of ZF embryos was semi-static and was carried out in 6-well plates (Greiner Bio-one, Frickenhausen, Germany). […] Lethality was determined at 8, 26, and 50 hpf based on egg coagulation, the absence of tail detachment, or somite formation and the absence of heartbeat. […]
Where a name gives a salt, the structure may show the parent alone.

- compound: "CCOC(=O)/C=C\\C(=O)OCC [Diethyl maleate (DEM), diethyl maleate]"
  LC50: "< 100 µM"
- compound: "COC(=O)[C@@H](N)CCCNC(N)=N[N+](=O)[O-]"
  LC50: "> 100 µM"

Note: attention shifts to another entry.
Entry under review: O=c1c(O)c(-c2ccc(O)c(O)c2)oc2cc(O)cc(O)c12 [Quercetin, quercetin hydrate] . Reported LC50?
> 30 µM
